# TARGET_OF_ASSAY: T1, human VLA4-Fc (alpha4-Fc/beta1-Fc heterodimer) (human)
# T1 construct: Soluble heterodimer from CHO cells, Protein A purified; also called VLA-Fc
# METHOD: SPR (BIACORE), VLA4-Fc captured by anti-human IgG, 1 mM MnCl2, 1:1 Langmuir
REPORTED_PROPERTY: pKd
// field semantics: pKd = negative decimal log of concentration (mol/L)

Example results:
| BINDER | pKd |
| --- | --- |
| 2D-VCAM-1 variant Clone 47 (ligand, also called Clone 047; not shown: His tag) FKIETTPESRYLAQIGDSVSLTCSTTGCESPFFSWRPLLDSPLNGKVTNEGTTSTLTMNPVSFGNEHSYLCTATCESRKLEKGIQVEIYSFPKDPEIHLSGPLEAGKPITVKCSVADVYPFDRLEIDLLKGDHLMKSQEFLEDADRKSLETKSLEVTFTPVIEDIGKVLVCRAKLHIDEMDSVPTVRQAVKELQVYISP | 9.83 |
| 2D-VCAM-1 variant Clone 59 (ligand, also called Clone 059; not shown: His tag) FKIETTPESRYLAQIGDSVSLTCSTTGCESPFFSWRPLLDSPLNGKVTNEGTTSTLTMNPVSFGNEHSYLCTATCESRKLEKGIQVEIYSFPKDPEIHLSGPLEAGKPITVKCSVADVYPFDRLEIDLLKGDHLMKSQEFFEDAAWKSLETKSLEVTFTPVIEDIGKVLVCRAKLHIDEMDSVPTVRQAVKELQVYISP | 10.30 |

Request: Identify the reported pKd for the following entry. 2D-VCAM-1 variant Clone 46 (ligand, also called Clone 046; not shown: His tag) FKIETTPESRYLAQIGDSVSLTCSTTGCESPFFSWRPQLDAPLNGKVTNEGTTSTLTMNPVSFGNEHSYLCTATCESRKLEKGIQVEIYSFPKDPEIHLSGPLEAGKPITVKCSVADVYPFDRLEIDLLKGDHLMKSQEFLEDADRKSLETKSLEVTFTPVIEDIGKVLVCRAKLHIDEMDSVPTVRQAVKELQVYISP
Result: 9.91
